# Molar Extinction Coefficient E values compiled below
Experiment: Absorbance at 340nm (extinction coefficients)
Format: physicochemical

{"columns": ["ENTRY_SMILES", "Molar Extinction Coefficient E"],
 "data": [
  ["CCC(C)(C)c1cc(-n2nc3ccc(C(C)(C)c4ccccc4)cc3n2)c(O)c(C(C)(C)CC)c1", "19100 L/mol/cm"],
  ["CC(C)(c1ccccc1)c1cc(-n2nc3ccc(Cc4ccccc4)cc3n2)c(O)c(C(C)(C)c2ccccc2)c1", "18500 L/mol/cm"],
  ["CC(C)(C)CC(C)(C)c1cc(-n2nc3ccc(C(C)(C)c4ccccc4)cc3n2)c(O)c(C(C)(C)c2ccccc2)c1", "18500 L/mol/cm"],
  ["CC(C)(c1ccccc1)c1cc(-n2nc3ccc(C(C)(C)c4ccccc4)cc3n2)c(O)c(C(C)(C)c2ccccc2)c1", "19500 L/mol/cm"],
  ["CC(C)(C)CC(C)(C)c1cc(-n2nc3ccc(C(C)(C)c4ccccc4)cc3n2)c(O)c(C(C)(C)CC(C)(C)C)c1", "17400 L/mol/cm"],
  ["CC(C)(C)c1cc(-n2nc3ccc(C(C)(C)c4ccccc4)cc3n2)c(O)c(C(C)(C)C)c1", "19000 L/mol/cm"],
  ["CC(C)(c1ccccc1)c1cc(-n2nc3ccccc3n2)c(O)c(C(C)(C)c2ccccc2)c1", "15100 L/mol/cm"]
]}

====

Assay: Solubility of benzotriazole stabilizers
Type: physicochemical
Conditions: heptane, 25° C.

{"columns": ["MOLECULE", "Solubility in Heptane"],
 "data": [
  ["CC(C)(c1ccccc1)c1cc(-n2nc3ccccc3n2)c(O)c(C(C)(C)c2ccccc2)c1 [Compound F]", "1.5 grams per 100 grams solvent"],
  ["CCC(C)(C)c1cc(-n2nc3ccc(C(C)(C)c4ccccc4)cc3n2)c(O)c(C(C)(C)CC)c1 [Example 23]", "> 100 grams per 100 grams solvent"],
  ["CC(C)(C)c1cc(-n2nc3ccc(C(C)(C)c4ccccc4)cc3n2)c(O)c(C(C)(C)C)c1 [Example 7]", "97 grams per 100 grams solvent"],
  ["CCC(C)(C)c1cc(-n2nc3ccccc3n2)c(O)c(C(C)(C)CC)c1 [Compound B]", "23 grams per 100 grams solvent"],
  ["CC(C)(C)CC(C)(C)c1cc(-n2nc3ccccc3n2)c(O)c(C(C)(C)c2ccccc2)c1 [Compound G]", "9.7 grams per 100 grams solvent"]
]}

====

Assay: Thermal gravimetric analysis (resistance to loss of benzotriazole stabilizers)
Conditions: isothermal at 280° C., 100 ml nitrogen/minute
ENDPOINT: Time (minutes) to 50% Weight Loss of Stabilizer (min)

{"columns": ["ENTRY_SMILES", "UNIT_TEXT", "RECORDED_NUMBER"],
 "data": [
  ["CC(C)(C)CC(C)(C)c1cc(-n2nc3ccc(C(C)(C)c4ccccc4)cc3n2)c(O)c(C(C)(C)c2ccccc2)c1", "min", 840],
  ["Cc1ccc(O)c(-n2nc3ccccc3n2)c1", "min", 0.75],
  ["CC(C)(C)CC(C)(C)c1cc(-n2nc3ccccc3n2)c(O)c(C(C)(C)c2ccccc2)c1", "min", 7.4],
  ["CC(C)(c1ccccc1)c1cc(-n2nc3ccccc3n2)c(O)c(C(C)(C)c2ccccc2)c1", "min", 24]
]}

The reported measurements were obtained from patent US4760148A.
